Quick reference: melting point of the listed items.

Here are 9 compounds together with their reported answers.
# COMPOUND, melting point
measured = [
    ("COc1ccccc1-c1nc(N)c(C#N)nc1-c1ccc(=O)n(C(C)C)c1", "223 °C"),
    ("CCOC(=O)C(C#N)=Cc1cc(OC)c(OC)c2c1C=CCO2", "104 to 108 °C"),
    ("COP(C)(=O)C1CC(c2ccccc2)=NO1 (stereo not given)", "72 to 74 °C"),
    ("CCN1CCN(c2ccnc(-c3nc(=O)c4ccccc4s3)c2)C1=O", "212 to 213 °C"),
    ("N#CC(=Cc1ccc(CBr)cc1)S(=O)(=O)c1ccccc1", "120 to 122 °C"),
    ("COc1cc(OCCOc2ccc(C(=O)C(=O)O)cc2)cc(OC)c1OC", "118 to 119 °C"),
    ("Cc1ccc(-c2nc(N3CCN(C)CC3)c3c(C)c(C#N)sc3n2)cc1", "207 to 209 °C"),
    ("OC1CCCC2Oc3ccccc3OC12 (stereo not given)", "81 to 82 °C"),
    ("COc1cc(Nc2nccc(Nc3ccc(O)cc3)n2)cc(OC)c1OC", "112 to 115 °C"),
]

--- query ---
Suppose we examine the compound COc1cc(C(=O)N(C(C)C)C(C)C)ccc1OCCCCOc1ccc(C(N)=NO)cc1 ; what melting point value has been reported?
63 to 65 °C

====

EXPERIMENTAL READOUT: melting point (°C)
Give your result in °C as a bare value.

Here are 2 compounds together with their reported answers.
# COMPOUND, melting point, °C
records = [
    ("Cn1c(=O)c2c(ncn2CCCN2CC=C(c3c[nH]c4ccccc34)CC2)n(C)c1=O", 243),
    ("Cc1cccc2nc3n(c12)CC(c1ccccn1)S3=O (stereo not given)", 148),
]

--- query ---
Suppose we examine the compound O=C(c1ccccc1)c1ccc2nccnc2c1 ; what melting point value has been reported?
120

====

Quick reference: melting point of the listed items.

Here are 4 molecules together with their reported answers.
# MOLECULE, melting point
records = [
    ("COC(=O)C1(NC(C)=O)CCc2cc(OC)ccc2C1 (stereo not drawn)", "153 to 154 °C"),
    ("CCc1cccc2c3c([nH]c12)C(CC)(CCOC)OCC3 (stereo not drawn)", "125 to 126 °C"),
    ("Cc1c(C)c(C=O)c2ncccc2c1C", "162 °C"),
    ("Cc1oc(C)c(C(=O)OC2CC(C)(C)NC(C)(C)C2)c1C", "54 to 58 °C"),
]

Suppose we examine the molecule CS(=O)(=O)Nc1cc2occ(S(C)(=O)=O)c(=O)c2cc1Oc1ccccc1 ; what melting point value has been reported?
> 250 °C

How about this molecule: CCCn1cc2c(C3C(=O)Nc4ccc(Br)cc43)nc(NCCC(F)(F)F)nc2n1 (stereo not drawn)
> 300 °C

How about this molecule: Cn1cnc2c3cccnc3n(-c3ccccc3)c(=O)c21
> 300 °C

How about this molecule: O=Cc1c[nH]nc1-c1ccc([N+](=O)[O-])o1
184 to 186 °C

====

EXPERIMENTAL READOUT: melting point

# COMPOUND, melting point
data = [
    ("COc1ccc(C2=NN(C3CCN(S(=O)(=O)c4ccc(C)cc4)CC3)C(=O)C(C)(C)C2)cc1OC", "161 to 164 °C"),
    ("CCCCCCCCCCCCCCCC(=O)NC(CCCCCCCCCCCCCCC)CC(=O)NCCC(=O)NC(Cc1ccccc1)C(=O)O (stereo not drawn)", "169 to 174 °C"),
    ("CC(=O)Nc1cc(-c2ccncn2)c[nH]c1=O", "> 250 °C"),
    ("COc1ccc(Cl)cc1C(=O)NCCC1CCN(S(=O)(=O)NC(=S)NC(C)C)CC1", "145 to 147 °C"),
    ("CC1(C)Oc2ccc(S(=O)(=O)C(F)(F)F)cc2[C@@H](N2Cc3c(F)cccc3C2=O)[C@@H]1O (relative stereo)", "259 to 261 °C"),
    ("CC1CCc2c(Cl)c(F)cc3c(=O)c(C(=O)O)cn1c23 (stereo not drawn)", "297 to 298 °C"),
    ("C=Cc1cccc(-n2ncc(-c3ccc(S(C)(=O)=O)cc3)c(-c3ccc(F)cc3)c2=O)c1", "182 to 183 °C"),
]

--- query ---
Suppose we examine the compound Nc1ccc(CCC(=O)Nc2ccc(C(=O)c3ccccc3)cc2)cc1N ; what melting point value has been reported?
156 to 157 °C
